Hello, the source for this data is patent US11780893B2, in case you need it.

Biological target: Kv1.2 (Homo sapiens, UniProt P16389)
Construct: expressed in transfected cells; host or cells: Chinese Hamster Ovary (CHO)
Sequence (P16389 whole entry): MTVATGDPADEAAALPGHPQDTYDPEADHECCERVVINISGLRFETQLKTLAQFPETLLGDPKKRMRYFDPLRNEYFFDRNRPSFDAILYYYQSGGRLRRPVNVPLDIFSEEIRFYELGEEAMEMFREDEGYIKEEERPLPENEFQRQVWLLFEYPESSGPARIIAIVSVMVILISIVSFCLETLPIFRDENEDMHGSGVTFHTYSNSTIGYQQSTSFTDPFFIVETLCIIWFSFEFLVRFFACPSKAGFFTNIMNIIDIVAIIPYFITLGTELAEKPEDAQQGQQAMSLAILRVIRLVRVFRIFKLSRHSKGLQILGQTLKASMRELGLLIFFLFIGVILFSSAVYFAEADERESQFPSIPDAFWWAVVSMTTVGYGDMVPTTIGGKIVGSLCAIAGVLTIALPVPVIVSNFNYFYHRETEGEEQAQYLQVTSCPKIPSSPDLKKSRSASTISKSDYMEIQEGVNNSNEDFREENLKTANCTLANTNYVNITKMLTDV
Test: cell-based
Details: CHO cells, whole-cell patch clamp; read-out: Potency IC50 (nM) Kv1.2
Bridge positions count the residues as written; N and C are the ends.
measurement-label: IC50

1) H-NMDMRCSASVECKQKCLKAIGSIFGKCMNKKCKCYPRRRTA-NH2 (disulfide 6-27, 12-32, 16-34) [Compound 23]    28 nM

----------
Target: Kv1.3 (Homo sapiens, UniProt P22001)
Construct: expressed in transfected cells; host or cells: Chinese Hamster Ovary (CHO)
Sequence (P22001 whole entry): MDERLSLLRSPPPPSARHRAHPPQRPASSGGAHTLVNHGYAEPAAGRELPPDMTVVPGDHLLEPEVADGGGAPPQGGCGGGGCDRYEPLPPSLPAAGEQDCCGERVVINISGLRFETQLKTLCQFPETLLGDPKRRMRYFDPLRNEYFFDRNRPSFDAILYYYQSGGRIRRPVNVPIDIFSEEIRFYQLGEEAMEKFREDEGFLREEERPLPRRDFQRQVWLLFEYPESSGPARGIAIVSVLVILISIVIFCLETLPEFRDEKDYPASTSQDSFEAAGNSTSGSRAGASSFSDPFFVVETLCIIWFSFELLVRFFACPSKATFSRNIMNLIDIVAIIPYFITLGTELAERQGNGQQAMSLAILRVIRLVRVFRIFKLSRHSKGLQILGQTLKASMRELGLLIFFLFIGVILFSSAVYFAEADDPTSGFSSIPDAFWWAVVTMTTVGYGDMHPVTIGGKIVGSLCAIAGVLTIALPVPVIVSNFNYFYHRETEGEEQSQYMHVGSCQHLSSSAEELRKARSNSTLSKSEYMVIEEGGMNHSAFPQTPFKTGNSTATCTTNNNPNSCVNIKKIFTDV
Assay: cell-based
Conditions: CHO cells, whole-cell patch clamp; read-out: Potency IC50 (nM) Kv1.3
Bridge positions count the residues as written; N and C are the ends.
measurement-label: IC50 (nM)

1. H-NMDMRCSASVECKQKCLKAIGSIFGKCMNKKCKCYPRRRTA-NH2 (disulfide 6-27, 12-32, 16-34) [Compound 23]    0.15
